Experimental System: Btk (Homo sapiens, UniProt Q06187)
Sequence (Q06187 whole entry): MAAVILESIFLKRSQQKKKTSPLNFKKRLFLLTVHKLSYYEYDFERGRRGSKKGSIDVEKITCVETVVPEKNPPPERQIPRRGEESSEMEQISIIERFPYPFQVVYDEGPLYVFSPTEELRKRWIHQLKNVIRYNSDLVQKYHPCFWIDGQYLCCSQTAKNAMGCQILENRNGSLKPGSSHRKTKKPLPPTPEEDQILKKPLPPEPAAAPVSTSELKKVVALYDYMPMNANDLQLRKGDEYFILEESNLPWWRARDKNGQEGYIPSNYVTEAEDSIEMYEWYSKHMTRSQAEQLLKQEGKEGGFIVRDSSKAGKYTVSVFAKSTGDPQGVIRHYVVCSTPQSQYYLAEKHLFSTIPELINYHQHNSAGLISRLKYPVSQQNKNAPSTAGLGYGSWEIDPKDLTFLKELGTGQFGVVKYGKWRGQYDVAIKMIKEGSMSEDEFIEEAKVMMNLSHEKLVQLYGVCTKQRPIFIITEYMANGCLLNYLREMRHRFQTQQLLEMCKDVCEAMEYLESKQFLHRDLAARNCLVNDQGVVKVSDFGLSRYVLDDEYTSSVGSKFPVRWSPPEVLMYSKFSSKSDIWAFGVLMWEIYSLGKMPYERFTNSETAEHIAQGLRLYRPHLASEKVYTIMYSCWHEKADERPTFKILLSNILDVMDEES
Procedure Text: Btk acellular kinase assay (TR-FRET)
Assay type: biochemical
Test Context: acellular TR-FRET kinase assay, ATP at Km; read-out: Btk IC50
Readout Type: IC50 (nM)
Answers are plain numbers, in nM.

Some compounds with known IC50 results, for comparison:
Notebook: pull reported IC50 for Btk (Homo sapiens, UniProt Q06187), entry C/C=C/C(=O)N1CCCC(n2nc(-c3ccc(Oc4ccccc4)cc3)c3c(N)ncnc32)C1 (stereo not shown) 20

Notebook: pull reported IC50 for Btk (Homo sapiens, UniProt Q06187), entry "C=CC(=O)N1CC[C@H](n2nc(-c3ccc(Oc4ccccc4)cc3)c3c(N)ncnc32)C1" 1.9

Notebook: pull reported IC50 for Btk (Homo sapiens, UniProt Q06187), entry "C=CC(=O)N1CCC(n2nc(-c3ccc(Oc4ccccc4)cc3)c3c(N)ncnc32)CC1" 3.6

Next:
Notebook: pull reported IC50 for Btk (Homo sapiens, UniProt Q06187), entry "C=CC(=O)N1CC[C@@H](n2nc(-c3ccc(Oc4ccccc4)cc3)c3c(N)ncnc32)C1" 1.6

----------
Target sequence: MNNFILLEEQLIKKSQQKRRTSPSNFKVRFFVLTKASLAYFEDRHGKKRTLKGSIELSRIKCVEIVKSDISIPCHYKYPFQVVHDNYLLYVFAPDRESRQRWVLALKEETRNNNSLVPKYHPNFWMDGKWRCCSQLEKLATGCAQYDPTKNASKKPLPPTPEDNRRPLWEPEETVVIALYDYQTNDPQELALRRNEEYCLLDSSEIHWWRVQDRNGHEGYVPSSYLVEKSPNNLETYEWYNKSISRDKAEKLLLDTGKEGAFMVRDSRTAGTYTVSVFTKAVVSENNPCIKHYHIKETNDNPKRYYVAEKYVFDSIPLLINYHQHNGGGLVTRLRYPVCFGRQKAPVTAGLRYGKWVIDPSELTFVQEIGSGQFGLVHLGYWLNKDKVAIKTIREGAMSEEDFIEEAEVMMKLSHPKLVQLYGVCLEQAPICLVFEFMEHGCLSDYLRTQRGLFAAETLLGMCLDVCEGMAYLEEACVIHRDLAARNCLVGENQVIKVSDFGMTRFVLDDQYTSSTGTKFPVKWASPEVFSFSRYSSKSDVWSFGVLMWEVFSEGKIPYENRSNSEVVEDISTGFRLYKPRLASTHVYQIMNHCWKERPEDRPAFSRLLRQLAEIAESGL
Readout Type: pIC50
One number for each entry, as −log10 of the molar value.

Param item = "C=CC(=O)N[C@H]1CC[C@@H](n2nc(-c3ccc(Oc4ccccc4)cc3)c3c(N)ncnc32)CC1" ; retrieve measured pIC50. 6.04

----------
Experimental System: Btk (Homo sapiens, UniProt Q06187)
Procedure Text: Btk acellular kinase assay (TR-FRET)
Format: biochemical
Readout Type: IC50 (nM)
Give bare numbers, in nM.

Param item = C#CC(=O)N1CCCC(n2nc(-c3ccc(Oc4ccccc4)cc3)c3c(N)ncnc32)C1 (stereo not shown) ; retrieve measured IC50. 0.72
